assay_remarks: Pharmacokinetic evaluation in mice, oral administration
Assay type: in vivo, Balb/c mice
study_conditions: mouse, in vivo, po, p.o. 5 mg/kg, plasma, single PK
measure_name: AUC(0-t) (ng·h/mL)
Give the number; ng·h/mL is assumed, so skip it.

smiles_structure	AUC(0-t) / ng·h/mL
Cc1cc(-n2nc3c(c2-n2ccn(-c4ccc5c6c(nn5C)CCCOc46)c2=O)[C@H](C)N(C(=O)c2cc4cc([C@H]5CCOC(C)(C)C5)ccc4n2[C@@]2(c4noc(=O)[nH]4)C[C@@H]2C)CC3)cc(C)c1F	32900

Qu. Recall and state the measured AUC(0-t) for Cc1cc(-n2nc3c(c2-n2ccn(-c4ccc5c(cnn5C5CC5)c4F)c2=O)[C@H](C)N(C(=O)c2cc4cc([C@H]5CCOC(C)(C)C5)ccc4n2[C@@]2(c4noc(=O)[nH]4)C[C@@H]2C)CC3)cc(C)c1C#N .
Ans. 15700

Qu. Recall and state the measured AUC(0-t) for [2H]C([2H])([2H])n1nc2c3c(c(-n4ccn(-c5c6c(nn5-c5cc(C)c(F)c(C)c5)CCN(C(=O)c5cc7cc([C@H]8CCOC(C)(C)C8)ccc7n5[C@@]5(c7noc(=O)[nH]7)C[C@@H]5C)[C@H]6C)c4=O)ccc31)OCCC2 .
Ans. 15000

Qu. Recall and state the measured AUC(0-t) for [2H]C([2H])([2H])n1nc2c3c(c(-n4ccn(-c5c6c(nn5-c5cc(C)c(F)c(C)c5)CCN(C(=O)c5cc7cc([C@H]8CCOC(C)(C)C8)ccc7n5[C@@]5(c7noc(=O)[nH]7)C[C@@H]5C#C)[C@H]6C)c4=O)ccc31)OCCC2 .
Ans. 27900

Qu. Recall and state the measured AUC(0-t) for Cc1cc(-n2nc3c(c2-n2ccn(-c4ccc5c(cnn5C5CC5)c4F)c2=O)[C@H](C)N(C(=O)c2cc4cc([C@H]5CCOC(C)(C)C5)ccc4n2[C@@]2(c4noc(=O)[nH]4)C[C@@H]2COC2CC2)CC3)cc(C)c1F .
Ans. 11200

Qu. Recall and state the measured AUC(0-t) for Cc1cc(-n2nc3c(c2-n2ccn(-c4ccc5c(cnn5C5CC5)c4F)c2=O)[C@H](C)N(C(=O)c2cc4cc([C@H]5CCOC(C)(C)C5)ccc4n2[C@@]2(c4noc(=O)[nH]4)[C@@H]4COC[C@@H]42)CC3)cc(C)c1F .
Ans. 10600

Qu. Recall and state the measured AUC(0-t) for CC#C[C@H]1C[C@]1(c1noc(=O)[nH]1)n1c(C(=O)N2CCc3nn(-c4cc(C)c(F)c(C)c4)c(-n4ccn(-c5ccc6c(cnn6C6CC6)c5F)c4=O)c3[C@@H]2C)cc2cc([C@H]3CCOC(C)(C)C3)ccc21 .
Ans. 23500

Qu. Recall and state the measured AUC(0-t) for Cc1cc(-n2nc3c(c2-n2ccn(-c4cc5c6c(c4)CCC(=O)N6CCC5)c2=O)[C@H](C)N(C(=O)c2cc4cc([C@H]5CCOC(C)(C)C5)ccc4n2[C@@]2(c4noc(=O)[nH]4)C[C@@H]2C)CC3)cc(C)c1F .
Ans. 12100

====

assay_remarks: Pharmacokinetic evaluation in beagles, oral administration
Assay type: in vivo
study_conditions: male, beagle, dog, po, p.o. 2 mg/kg, plasma, read-out: MRT 0-∞
The entries below are paired with their reported MRT inf.
Give the number; h is assumed, so skip it.

compound	MRT inf (h)
C#C[C@H]1C[C@]1(c1noc(=O)[nH]1)n1c(C(=O)N2CCc3nn(-c4cc(C)c(F)c(C)c4)c(-n4ccn(-c5ccc6c(cnn6C6CC6)c5F)c4=O)c3[C@@H]2C)cc2cc([C@H]3CCOC(C)(C)C3)ccc21 [Example 143]	4.8

Next up:
Qu. Recall and state the measured MRT inf for [2H]C([2H])([2H])n1nc2c3c(c(-n4ccn(-c5c6c(nn5-c5cc(C)c(F)c(C)c5)CCN(C(=O)c5cc7cc([C@H]8CCOC(C)(C)C8)ccc7n5[C@@]5(c7noc(=O)[nH]7)C[C@@H]5COC5CC5)[C@H]6C)c4=O)ccc31)OCCC2 [Example 285] .
Ans. 5.3

====

assay_remarks: Pharmacokinetic evaluation in mice, oral administration
Format: in vivo, Balb/c mice
study_conditions: mouse, in vivo, po, p.o. 5 mg/kg, plasma, single PK, read-out: MRT 0-∞
Description: Balb/c mice were used as test animals to study the pharmacokinetic behavior of the compound of the present invention in mice (plasma) at a dose of 5 mg/kg administered orally and 1 mg/kg administered intravenously. Balb/c mice, 3 per group, male. […] 10 ml of PEG400, 10 ml of PG, and 80 ml of (100 mM glycine, 64 Mm NaOH, pH = 9) were measured into a 100 ml volumetric flask, vortexed, mixed homogeneously, and sonicated to obtain a clear solution. […]
measure_name: MRT inf (h)
Give the number; h is assumed, so skip it.

Consider the following illustrative entries.
compound	MRT inf (h)
Cc1cc(-n2nc3c(c2-n2ccn(-c4ccc5c(cnn5C5CC5)c4F)c2=O)[C@H](C)N(C(=O)c2cc4cc([C@H]5CCOC(C)(C)C5)ccc4n2[C@@]2(c4noc(=O)[nH]4)[C@@H]4COC[C@@H]42)CC3)cc(C)c1F [Example 65-1]	6.5
Cc1cc(-n2nc3c(c2-n2ccn(-c4ccc5c6c(nn5C)CCCOc46)c2=O)[C@H](C)N(C(=O)c2cc4cc([C@H]5CCOC(C)(C)C5)ccc4n2[C@@]2(c4noc(=O)[nH]4)C[C@@H]2C)CC3)cc(C)c1F [Example 35]	13.9
Cc1cc(-n2nc3c(c2-n2ccn(-c4ccc5c(cnn5C5CC5)c4F)c2=O)[C@H](C)N(C(=O)c2cc4cc([C@H]5CCOC(C)(C)C5)ccc4n2[C@@]2(c4noc(=O)[nH]4)C[C@@H]2COC2CC2)CC3)cc(C)c1F [Example 67]	8.2
[2H]C([2H])([2H])n1nc2c3c(c(-n4ccn(-c5c6c(nn5-c5cc(C)c(F)c(C)c5)CCN(C(=O)c5cc7cc([C@H]8CCOC(C)(C)C8)ccc7n5[C@@]5(c7noc(=O)[nH]7)C[C@@H]5C)[C@H]6C)c4=O)ccc31)OCCC2 [Example 282]	13
Cc1cc(-n2nc3c(c2-n2ccn(-c4ccc5c(cnn5C5CC5)c4F)c2=O)[C@H](C)N(C(=O)c2cc4cc([C@H]5CCOC(C)(C)C5)ccc4n2[C@@]2(c4noc(=O)[nH]4)C[C@@H]2C)CC3)cc(C)c1C#N [Example 49]	7.1

Qu. Recall and state the measured MRT inf for CC#C[C@H]1C[C@]1(c1noc(=O)[nH]1)n1c(C(=O)N2CCc3nn(-c4cc(C)c(F)c(C)c4)c(-n4ccn(-c5ccc6c(cnn6C6CC6)c5F)c4=O)c3[C@@H]2C)cc2cc([C@H]3CCOC(C)(C)C3)ccc21 [Example 144] .
Ans. 20.8

Qu. Recall and state the measured MRT inf for [2H]C([2H])([2H])n1nc2c3c(c(-n4ccn(-c5c6c(nn5-c5cc(C)c(F)c(C)c5)CCN(C(=O)c5cc7cc([C@H]8CCOC(C)(C)C8)ccc7n5[C@@]5(c7noc(=O)[nH]7)C[C@@H]5C#C)[C@H]6C)c4=O)ccc31)OCCC2 [Example 287] .
Ans. 4.2

Qu. Recall and state the measured MRT inf for Cc1cc(-n2nc3c(c2-n2ccn(-c4cc5c6c(c4)CCC(=O)N6CCC5)c2=O)[C@H](C)N(C(=O)c2cc4cc([C@H]5CCOC(C)(C)C5)ccc4n2[C@@]2(c4noc(=O)[nH]4)C[C@@H]2C)CC3)cc(C)c1F [Example 34] .
Ans. 9

====

The entries below are paired with their reported AUC(0-inf).
assay_remarks: Pharmacokinetic evaluation in mice, oral administration
Assay type: in vivo, Balb/c mice
study_conditions: mouse, in vivo, po, p.o. 5 mg/kg, plasma, single PK
Hey, just the number and the unit after it is fine.

compound	AUC(0-inf)
Cc1cc(-n2nc3c(c2-n2ccn(-c4ccc5c(cnn5C5CC5)c4F)c2=O)[C@H](C)N(C(=O)c2cc4cc([C@H]5CCOC(C)(C)C5)ccc4n2[C@@]2(c4noc(=O)[nH]4)[C@@H]4COC[C@@H]42)CC3)cc(C)c1F [Example 65-1]	10900 ng·h/mL
[2H]C([2H])([2H])n1nc2c3c(c(-n4ccn(-c5c6c(nn5-c5cc(C)c(F)c(C)c5)CCN(C(=O)c5cc7cc([C@H]8CCOC(C)(C)C8)ccc7n5[C@@]5(c7noc(=O)[nH]7)C[C@@H]5C#C)[C@H]6C)c4=O)ccc31)OCCC2 [Example 287]	28000 ng·h/mL
CC#C[C@H]1C[C@]1(c1noc(=O)[nH]1)n1c(C(=O)N2CCc3nn(-c4cc(C)c(F)c(C)c4)c(-n4ccn(-c5ccc6c(cnn6C6CC6)c5F)c4=O)c3[C@@H]2C)cc2cc([C@H]3CCOC(C)(C)C3)ccc21 [Example 144]	35100 ng·h/mL

Next up:
Qu. Recall and state the measured AUC(0-inf) for Cc1cc(-n2nc3c(c2-n2ccn(-c4ccc5c(cnn5C5CC5)c4F)c2=O)[C@H](C)N(C(=O)c2cc4cc([C@H]5CCOC(C)(C)C5)ccc4n2[C@@]2(c4noc(=O)[nH]4)C[C@@H]2C)CC3)cc(C)c1C#N [Example 49] .
Ans. 16600 ng·h/mL
